Experiment: molar heat capacity at constant pressure
Conditions: 251.15 K; 101.33 kPa; Crystal; Small sample (50 mg) DSC
readout-name: molar heat capacity at constant pressure (J/K/mol)
Give the value in J/K/mol but do not write J/K/mol after it.

Examples with their reported molar heat capacity at constant pressure follow.
molecule	readout-name	number
OC[C@@H](O)[C@@H](O)CO [meso-1,2,3,4-butanetetrol]	molar heat capacity at constant pressure	139.41
OC[C@@H](O)[C@H](O)[C@@H](O)CO [xylitol]	molar heat capacity at constant pressure	175.38
O[C@H]1[C@H](O)[C@@H](O)[C@H](O)[C@@H](O)[C@H]1O [cis-1,2,3,5-trans-4,6-cyclohexanehexol]	molar heat capacity at constant pressure	181.9
OC[C@H](O)C(O)[C@@H](O)CO [L-(-)-arabitol]	molar heat capacity at constant pressure	173.21
OC[C@@H](O)C(O)[C@H](O)CO [D-arabitol]	molar heat capacity at constant pressure	168.09

Could you now consider this next molecule?
Reported molar heat capacity at constant pressure, molecule OC[C@@H](O)[C@@H](O)[C@H](O)[C@H](O)CO [D-mannitol] : ____
195.14
